Molecular target: ACVR2A on primary human myotubes (human, UniProt P27037 20-513)
Sequence (P27037 20-513): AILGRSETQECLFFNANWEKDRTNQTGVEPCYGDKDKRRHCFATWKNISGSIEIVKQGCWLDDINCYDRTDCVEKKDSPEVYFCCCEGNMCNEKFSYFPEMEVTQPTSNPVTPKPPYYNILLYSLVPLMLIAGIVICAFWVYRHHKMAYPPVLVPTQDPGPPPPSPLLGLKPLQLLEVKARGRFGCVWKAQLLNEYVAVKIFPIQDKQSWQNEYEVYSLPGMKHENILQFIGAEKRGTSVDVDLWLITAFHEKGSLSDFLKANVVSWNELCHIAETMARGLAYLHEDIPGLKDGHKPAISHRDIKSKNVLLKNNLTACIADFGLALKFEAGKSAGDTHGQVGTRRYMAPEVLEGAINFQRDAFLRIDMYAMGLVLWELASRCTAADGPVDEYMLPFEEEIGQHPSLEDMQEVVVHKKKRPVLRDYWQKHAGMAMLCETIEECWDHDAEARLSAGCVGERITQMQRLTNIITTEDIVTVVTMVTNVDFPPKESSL
Assay: cell-based or functional assay
endpoint: Phospho-SMAD3 Human Skeletal Muscle GDF8

binder	endpoint	readout_value
372_B09 (antibody, V domains shown) VH: EVQLLESGGGLVQPGGSLRLSCAASGFTFSSYSMNWVRQAPGKGLEWVSSINYNSGYTSYADSVKGRFTISRDNSKNTLYLQMNSLRAEDTAVYYCARGATWHDTHLDYWGQGTLVTVSS VL: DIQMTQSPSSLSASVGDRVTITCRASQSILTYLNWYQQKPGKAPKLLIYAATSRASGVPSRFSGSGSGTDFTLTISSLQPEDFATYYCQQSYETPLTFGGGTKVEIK	Phospho-SMAD3 Human Skeletal Muscle GDF8	0.0182
376_H11 (antibody, V domains shown) VH: EVQLLESGGGLVQPGGSLRLSCAASGFTFDSYSMNWVRQAPGKGLEWVSNINYNGGYTGYADSVKGRFTISRDNSKNTLYLQMNSLRAEDTAVYYCARGANWHDTALDYWGQGTLVTVSS VL: DIQMTQSPSSLSASVGDRVTITCRASQSISRYLNWYQQKPGKAPKLLIYAVTSLASGVPSRFSGSGSGTDFTLTISSLQPEDFATYYCQQSYESPLTFGGGTKVEIK	Phospho-SMAD3 Human Skeletal Muscle GDF8	0.0042
374_G08 (antibody, V domains shown) VH: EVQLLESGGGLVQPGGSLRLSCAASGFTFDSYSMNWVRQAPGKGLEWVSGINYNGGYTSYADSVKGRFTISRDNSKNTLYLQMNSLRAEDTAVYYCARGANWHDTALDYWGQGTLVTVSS VL: DIQMTQSPSSLSASVGDRVTITCRASQSILTYVNWYQQKPGKAPKLVIYAATSRASGVPSRFSGSGSGTDFTLTISSLQPEDFATYYCQQSYDSPLTFGGGTKVEIK	Phospho-SMAD3 Human Skeletal Muscle GDF8	0.034
370_C06 (antibody, V domains shown) VH: EVQLLESGGGLVQPGGSLRLSCAASGFTFSSYSMNWVRQAPGKGLEWVANINYNGGYKSYADSVKGRFTISRDNSKNTLYLQMNSLRAEDTAVYYCARGATWHDTHLDYWGQGTLVTVSS VL: DIQMTQSPSSLSASVGDRVTITCRASQSILTYVNWYQQKPGKAPKLLIYAASSLQSGVPSRFSGSGSGTDFTLTISSLQPEDFATYYCQQSYSTPLTFGGGTKVEIK	Phospho-SMAD3 Human Skeletal Muscle GDF8	0.0111
369_H12 (antibody, V domains shown) VH: EVQLLESGGGLVQPGGSLRLSCAASGFTFSSYSMNWVRQAPGKGLEWVAGINYNGGYKSYADSVKGRFTISRDNSKNTLYLQMNSLRAEDTAVYYCARGATWHDTHLDYWGQGTLVTVSS VL: DIQMTQSPSSLSASVGDRVTITCRASQSIVTYVNWYQQKPGKAPKLVIYAATSRASGVPSRFSGSGSGTDFTLTISSLQPEDFATYYCQQSYDSPLTFGGGTKVEIK	Phospho-SMAD3 Human Skeletal Muscle GDF8	0.0303
375_A12 (antibody, V domains shown) VH: EVQLLESGGGLVQPGGSLRLSCAASGFTFSSYSMNWVRQAPGKGLEWVSGINYNSGYKSYADSVKGRFTISRDNSKNTLYLQMNSLRAEDTAVYYCARGANWHDTALDYWGQGTLVTVSS VL: DIQMTQSPSSLSASVGDRVTITCRASQSILSYLNWYQQKPGKAPKLVIYAVTSRASGVPSRFSGSGSGTDFTLTISSLQPEDFATYYCQQSYETPLTFGGGTKVEIK	Phospho-SMAD3 Human Skeletal Muscle GDF8	0.0469
375_H05 (antibody, V domains shown) VH: EVQLLESGGGLVQPGGSLRLSCAASGFTFSSYSMNWVRQAPGKGLEWVSNINYNGGYTGYADSVKGRFTISRDNSKNTLYLQMNSLRAEDTAVYYCARGANWHDTALDYWGQGTLVTVSS VL: DIQMTQSPSSLSASVGDRVTITCRASQSILSYVNWYQQKPGKAPKLLIYAATSRASGVPSRFSGSGSGTDFTLTISSLQPEDFATYYCQQSYDTPLTFGGGTKVEIK	Phospho-SMAD3 Human Skeletal Muscle GDF8	0.0346
373_G08 (antibody, V domains shown) VH: EVQLLESGGGLVQPGGSLRLSCAASGFTFDSYSMNWVRQAPGKGLEWVSNINYNGGYTSYADSVKGRFTISRDNSKNTLYLQMNSLRAEDTAVYYCARGANWHDTALDYWGQGTLVTVSS VL: DIQMTQSPSSLSASVGDRVTITCRASQSILTYLNWYQQKPGKAPKLLIYAATSLASGVPSRFSGSGSGTDFTLTISSLQPEDFATYYCQQSYDSPLTFGGGTKVEIK	Phospho-SMAD3 Human Skeletal Muscle GDF8	0.0057
369_C12 (antibody, V domains shown) VH: EVQLLESGGGLVQPGGSLRLSCAASGFTFSSYGMNWVRQAPGKGLEWVANINYNGGYKGYADSVKGRFTISRDNSKNTLYLQMNSLRAEDTAVYYCARGATWHDTHLDYWGQGTLVTVSS VL: DIQMTQSPSSLSASVGDRVTITCRASQSILTYLNWYQQKPGKAPKLLIYAATSRHSGVPSRFSGSGSGTDFTLTISSLQPEDFATYYCQQSYDTPLTFGGGTKVEIK	Phospho-SMAD3 Human Skeletal Muscle GDF8	0.0094
374_D05 (antibody, V domains shown) VH: EVQLLESGGGLVQPGGSLRLSCAASGFTFDSYSMNWVRQAPGKGLEWVSGINYNSGYTGYADSVKGRFTISRDNSKNTLYLQMNSLRAEDTAVYYCARGANWHDTHLDYWGQGTLVTVSS VL: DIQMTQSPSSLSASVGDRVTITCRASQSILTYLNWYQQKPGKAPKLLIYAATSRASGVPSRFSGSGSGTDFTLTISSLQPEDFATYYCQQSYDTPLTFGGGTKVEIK	Phospho-SMAD3 Human Skeletal Muscle GDF8	0.0177

Reference for the values: patent US20210380703A1
